FYI, the data here is from patent US9708336B2.

Recorded measurements of IC50, one per entry
target: IMP-1 (Serratia marcescens, UniProt P52699); experiment: biochemical; format: biochemical; conditions: IMP-1 enzyme, CCF2-FA substrate; read-out: IMP-1 IC50
Sequence (P52699 whole entry, looked up): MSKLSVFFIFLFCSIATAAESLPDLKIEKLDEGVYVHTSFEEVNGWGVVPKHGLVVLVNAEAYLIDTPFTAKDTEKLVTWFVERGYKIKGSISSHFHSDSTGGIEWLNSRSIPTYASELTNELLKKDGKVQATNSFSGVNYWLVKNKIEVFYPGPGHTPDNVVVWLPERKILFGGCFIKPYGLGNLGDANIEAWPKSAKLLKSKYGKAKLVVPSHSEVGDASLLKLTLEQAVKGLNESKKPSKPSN
MEASURE NAME: IC50 (nM)

1) Nc1nc2cc(C(F)(F)F)cc(-c3ccc(C(F)(F)F)c(S(N)(=O)=O)c3-c3nnn[nH]3)c2[nH]1 [Example 567]    3.77
2) NS(=O)(=O)c1c(C(F)(F)F)ccc(-c2ccc(-c3c[nH]c(O)n3)cc2)c1-c1nnn[nH]1.O=C(O)C(F)(F)F [Example 559]    0.534
3) NCCN1CCC(c2ccc(-c3cccc(S(N)(=O)=O)c3-c3nnn[nH]3)cc2)CC1 [Example 616]    14.4
4) NS(=O)(=O)c1c(C(F)(F)F)ccc(N2CC[C@H](CO)[C@H](F)C2)c1-c1nnn[nH]1 [Example 663]    2.94
5) Nc1nc2c(-c3ccc(CC4CNC4)c(S(N)(=O)=O)c3-c3nn[nH]n3)cccc2s1 [Example 545]    21.8
6) CC(CCCN)N[C@H]1CC[C@H](c2ccc(C(F)(F)F)c(S(N)(=O)=O)c2-c2nnn[nH]2)CC1 (stereo partly drawn) [Example 688]    158
7) Nc1ccc(-c2ccc(C[C@H]3CC[C@H](N)CC3)c(S(N)(=O)=O)c2-c2nnn[nH]2)cn1 [Example 575]    59.5
8) Nc1nc2cccc(-c3ccc(C(F)(F)F)c(S(N)(=O)=O)c3-c3nnn[nH]3)c2s1 [Example 553]    0.959
9) Cc1nc(N)ccc1Cc1cccc(S(N)(=O)=O)c1-c1nn[nH]n1 [Example 572]    701
10) CNCCN1CCC(c2ccc(-c3ccc(C(F)(F)F)c(S(N)(=O)=O)c3-c3nnn[nH]3)cc2)CC1 [Example 674]    2.47
11) NS(=O)(=O)c1c(C(F)(F)F)ccc(N2CCC[C@@H](O)C2)c1-c1nnn[nH]1 [Example 665]    29.8
12) NS(=O)(=O)c1c(C(F)(F)F)ccc(-c2ccc(C(O)C3CCNCC3)cc2)c1-c1nnn[nH]1 (stereo not drawn) [Example 738]    2.28
13) NS(=O)(=O)c1c(CC[C@H]2CC[C@@H](N)CC2)ccc(-c2ccc(C3CCNC3)cc2)c1-c1nnn[nH]1 (stereo partly drawn) [Example 585]    17
14) Nc1nc2cccc(-c3ccc(C(F)(F)F)c(S(N)(=O)=O)c3-c3nnn[nH]3)c2[nH]1 [Example 551]    3.8
15) NS(=O)(=O)c1c(C(F)(F)F)ccc(-c2cccc(N3CCCC(O)C3)c2)c1-c1nnn[nH]1 (stereo not drawn) [Example 739]    6.82
